Sourced from patent US20170158755A1

Biological target: His-LAMA4 as used in Example 6 (species not stated) (Homo sapiens (Human)) (UniProt Q16363)
Assay: ForteBio BLI, LAMA-His on anti-His sensor, antibody 16.7 nM
attribute measured: koff (s⁻¹)

binder	reading
humanized 19C12 antibody H2L4 (antibody, V domains shown) VH: QVQLQQSGAELVKPGASVKVSCKASGYAFSTYWMNWVRQAPGQGLEWIGQIYPGDGDTNYNGKFKGRVTITADKSTSTAYMELSSLRSEDTAVYFCARSDGYYDYWGQGTTVTVSS VL: NIVLTQSPASLAVSLGERATISCRASESVDSYGTSFMHWYQQKPGQPPKLLISLASSLESGVPARFSGSGSGTDFTLTISPVEAEDAATYYCQQNNEDPPTFGAGTKLEIKR	0.000227
humanized 19C12 antibody H2L3 (antibody, V domains shown) VH: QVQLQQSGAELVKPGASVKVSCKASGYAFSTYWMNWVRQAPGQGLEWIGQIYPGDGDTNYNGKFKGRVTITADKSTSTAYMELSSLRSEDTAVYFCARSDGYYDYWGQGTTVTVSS VL: NIVLTQSPASLAVSLGERATISCRASESVDSYGTSFMHWYQQKPGQPPKLLICLASSLESGVPARFSGSGSRTDFTLTIDPVEAEDAATYYCQQNNEDPPTFGAGTKLEIKR	0.000363
humanized 19C12 antibody H3L6 (antibody, V domains shown) VH: EVQLQQSGAELVKPGASVKVSCKASGYAFSTYWMNWVRQAPGQGLEWIGQIYPGDGDTNYNGKFKGRVTITADKSTSTAYMELSSLRSEDTAVYFCARSDGYYDYWGQGTTVTVSS VL: DIVLTQSPASLAVSLGERATISCRASESVDSYGTSFMHWYQQKPGQPPKLLISLASSLESGVPARFSGSGSGTDFTLTISPVEAEDAATYYCQQNNEDPPTFGAGTKLEIKR	0.000501
chimeric 19C12 antibody (antibody, V domains shown) VH: QVQLQQSGAELVKPGASVKISCKASGYAFSTYWMNWVKQRPGEGLEWIGQIYPGDGDTNYNGKFKGKATLTADKSSSTAYMQLSSLTSEDSAVYFCARSDGYYDYWGQGTTLTVSS VL: NIVLTQSPASLAVSLGQRATISCRASESVDSYGTSFMHWYQQKPGQPPKLLICLASSLESGVPARFSGSGSRTDFTLTIDPVEADDAATYYCQQNNEDPPTFGAGTKLELKR	0.000403
